Assay: Potentiometric titrations, protonation constants
Type: physicochemical
Conditions: 0.15 M NaCl, 298.1 K
Experimental: FEM measurements. Potentiometric titrations were conducted at 298.1 ± 0.1 K using 0.15 M NaCl as the support electrolyte. […] The FEM data acquisition was performed with the PASAT software (M. Fontanelli and M. Micheloni, Program for the automatic control of the microburette and the acquisition of the electromotor force readings (PASAT). Minutes of the 1st Spanish-Italian Congress of Thermodynamics of Metal Complexes, Peñíscola, Castellón, Spain, 1990). […]
The entries below are paired with their reported Logarithm of the protonation constant H2L+H ⇌ H3L.
Experimental Endpoint: Logarithm of the protonation constant H2L+H ⇌ H3L

{"Compound String": "CNCCNCc1cccnc1", "Recorded Measurement": "2.95(2)"}
{"Compound String": "CNCCNCc1ccnc2ccccc12", "Recorded Measurement": "3.183(8)"}
{"Compound String": "CN(C)CCNCc1ccccn1", "Recorded Measurement": "2.25(2)"}
{"Compound String": "CN(C)CCNCc1ccncc1", "Recorded Measurement": "2.956(6)"}
{"Compound String": "CN(C)CCNCc1ccnc2ccccc12", "Recorded Measurement": "3.32(1)"}
{"Compound String": "CNCCNCc1ccncc1", "Recorded Measurement": "3.390(6)"}
{"Compound String": "CN(C)CCNCc1cccnc1", "Recorded Measurement": "3.16(1)"}

---

System: L. braziliensis amastigote forms
Assay: In vitro activity against intracellular (amastigote) forms in macrophages
Type: cell-based, Leishmania braziliensis
Details: Leishmania braziliensis, Macrophage, 72 h
Method: Methodology: Cultures of three Leishmania species, representative of the species causing each of the clinical forms of the disease, were used for these studies. […] After that time, the crystals were removed and fixed with methanol on a slide and allowed to dry, after which DPX microscopy mounting medium (Panreac®) was added to it. […] Finally, the amastigote forms were counted with the aim of immersion in a total of 200 cells.
Experimental Endpoint: IC50 (µM)

{"Compound": "CNCCNCc1cccnc1 [Compound 2, 1-{3-pyridyl)-2,5-diazahexane]", "Units": "µM", "Recorded Measurement": 15.8}
{"Compound": "CNCCNCc1ccncc1 [Compound 3, 1-{4-pyridyl)-2,5-diazahexane]", "Units": "µM", "Recorded Measurement": 27.9}
{"Compound": "CN(C)CCNCc1ccncc1 [Compound 6]", "Units": "µM", "Recorded Measurement": 29.7}
{"Compound": "CNCCNCc1ccc2ccccc2n1 [Compound 9, 1-{2-quinolyl)-2,5-diazahexane]", "Units": "µM", "Recorded Measurement": 26.5}
{"Compound": "CN(C)CCNCc1ccccn1 [Compound 4, 1-(2-pyridyl)-5-methyl-2,5-diazahexane]", "Units": "µM", "Recorded Measurement": 30.8}
{"Compound": "CN(C)CCNCc1ccnc2ccccc12 [Compound 8, 1-{4-quinolyl)-5-methyl-2,5-diazahexane]", "Units": "µM", "Recorded Measurement": 16.8}
{"Compound": "CNCCNCc1ccnc2ccccc12 [Compound 10]", "Units": "µM", "Recorded Measurement": 21.7}
{"Compound": "CN(C)CCNCc1cccnc1 [Compound 5, 1-{3-pyridyl}-5-methyl-2,5-diazahexane]", "Units": "µM", "Recorded Measurement": 20}
{"Compound": "CN(C)CCNCc1ccc2ccccc2n1 [Compound 7]", "Units": "µM", "Recorded Measurement": 38.9}
{"Compound": "CNCCNCc1ccccn1 [Compound 1, 1-{2-pyridyl}-2,5-diazahexane]", "Units": "µM", "Recorded Measurement": 5.7}

---

assay: Potentiometric titrations, protonation constants; type: physicochemical; details: 0.15 M NaCl, 298.1 K
Experimental Endpoint: Logarithm of the protonation constant H+L ⇌ HL

{"Compound String": "CN(C)CCNCc1ccnc2ccccc12", "Recorded Measurement": "10.08(1)"}
{"Compound String": "CN(C)CCNCc1ccncc1", "Recorded Measurement": "8.865(3)"}
{"Compound String": "CNCCNCc1ccnc2ccccc12", "Recorded Measurement": "9.512(6)"}

---

test system: L. infantum promastigote forms; experiment: In vitro activity against extracellular (promastigote) forms; assay type: cell-based, Leishmania infantum; conditions: Leishmania infantum, 72 h
pIC50: −log10 of the molar value.
The entries below are paired with their reported pIC50.
Experimental Endpoint: pIC50

{"Compound String": "CN(C)CCNCc1ccnc2ccccc12", "Target Desc": "L. infantum promastigote forms", "Recorded Measurement": 4.85}
{"Compound String": "CNCCNCc1ccnc2ccccc12", "Target Desc": "L. infantum promastigote forms", "Recorded Measurement": 4.90}
{"Compound String": "CN(C)CCNCc1ccc2ccccc2n1", "Target Desc": "L. infantum promastigote forms", "Recorded Measurement": 4.07}
{"Compound String": "CNCCNCc1cccnc1", "Target Desc": "L. infantum promastigote forms", "Recorded Measurement": 5.19}
{"Compound String": "CNCCNCc1ccncc1", "Target Desc": "L. infantum promastigote forms", "Recorded Measurement": 4.90}
{"Compound String": "CNCCNCc1ccc2ccccc2n1", "Target Desc": "L. infantum promastigote forms", "Recorded Measurement": 4.81}

---

The entries below are paired with their reported IC50.
tested on: J774.2 macrophages; assay: Macrophage toxicity by flow cytometry; format: cell-based; settings: J774.2 macrophages, 72 h of culture

{"Compound String": "CN(C)CCNCc1ccccn1", "IC50, µM": 1240}
{"Compound String": "CN(C)CCNCc1ccc2ccccc2n1", "IC50, µM": 442}
{"Compound String": "CNCCNCc1cccnc1", "IC50, µM": 310}

meta.source: patent US20230346769A1
